All figures here come from patent EP4458820A1.

Tested Target: THR-β (Homo sapiens, UniProt P10828)
Construct: GST; made in house
Sequence (P10828 1-461): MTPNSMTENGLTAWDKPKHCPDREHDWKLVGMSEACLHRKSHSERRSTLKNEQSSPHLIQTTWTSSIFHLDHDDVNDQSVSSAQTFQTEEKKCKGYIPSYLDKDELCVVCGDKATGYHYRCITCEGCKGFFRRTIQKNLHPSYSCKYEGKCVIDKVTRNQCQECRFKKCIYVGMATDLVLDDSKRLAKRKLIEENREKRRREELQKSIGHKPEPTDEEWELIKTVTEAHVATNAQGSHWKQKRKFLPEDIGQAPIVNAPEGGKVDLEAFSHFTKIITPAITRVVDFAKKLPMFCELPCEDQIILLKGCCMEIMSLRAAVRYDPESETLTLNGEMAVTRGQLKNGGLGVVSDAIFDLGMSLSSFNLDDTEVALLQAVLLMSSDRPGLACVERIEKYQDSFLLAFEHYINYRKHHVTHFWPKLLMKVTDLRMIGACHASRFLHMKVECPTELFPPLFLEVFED
Protocol: in vitro THR β agonist activity at the molecular level (AlphaScreen detection)
Format: biochemical
Experimental Parameters: in vitro molecular evaluation system; THR-β versus THR-α
Readout Type: Selectivity

[[record]]
cpd_smiles = "Cc1cc(-c2ccoc2)nc2ccc(Oc3c(Cl)cc(-n4nc(C#N)c(=O)[nH]c4=O)cc3Cl)cc12"
tested_target = "THR-β (Homo sapiens, UniProt P10828)"
readout_type = "Selectivity"
reported_measurement = 4.2

[[record]]
cpd_smiles = "Cc1cc(-c2ccc(F)cc2)nc2ccc(Oc3c(Cl)cc(-n4nc(N)c(=O)[nH]c4=O)cc3Cl)cc12"
tested_target = "THR-β (Homo sapiens, UniProt P10828)"
readout_type = "Selectivity"
reported_measurement = 6.89


a = Cc1cc(C2CCCCC2)nc2ccc(Oc3c(Cl)cc(-n4nc(N)c(=O)[nH]c4=O)cc3Cl)cc12
b = Nc1nn(-c2cc(Cl)c(Oc3ccc4nccc(Cl)c4c3)c(Cl)c2)c(=O)[nH]c1=O
Would you let me know which has the greater Selectivity value, a or b ? # respond with the chosen item's label
b
(b: 7.85, a: 4.2)

###

Tested Target: UniProt:P10827
Protocol: in vitro agonist activity at the molecular level (AlphaScreen detection), THR-α
Assay type: biochemical
Experimental Parameters: read-out: THR-α Rel % Activity of T3; in vitro molecular evaluation system
Readout Type: Emax (%)

[[record]]
cpd_smiles = "Cc1cc(-c2ccc(F)cc2)nc2ccc(Oc3c(Cl)cc(-n4nc(N)c(=O)[nH]c4=O)cc3Cl)cc12"
tested_target = "UniProt:P10827"
unit_abbrev = "%"
reported_measurement = 62.7

[[record]]
cpd_smiles = "Nc1nn(-c2cc(Cl)c(Oc3ccc4nccc(Cl)c4c3)c(Cl)c2)c(=O)[nH]c1=O"
tested_target = "UniProt:P10827"
unit_abbrev = "%"
reported_measurement = 67.5

[[record]]
cpd_smiles = "Cc1cc(-c2ccoc2)nc2ccc(Oc3c(Cl)cc(-n4nc(C#N)c(=O)[nH]c4=O)cc3Cl)cc12"
tested_target = "UniProt:P10827"
unit_abbrev = "%"
reported_measurement = 57.6


I = Cc1cc(-c2ccco2)nc2ccc(Oc3c(Cl)cc(-n4nc(C#N)c(=O)[nH]c4=O)cc3Cl)cc12
II = Cc1cc(C2CCCCC2)nc2ccc(Oc3c(Cl)cc(-n4nc(N)c(=O)[nH]c4=O)cc3Cl)cc12
When their Emax values are compared, which is larger, I or II ? Identify your pick by its label.
I

###

Protocol: tissue distribution studies in mice
Format: in vivo
Experimental Parameters: mouse, liver, po, 10 mg/kg, Table 6, 3.00 h, individual animal, read-out: Liver
Readout Type: concentration at 3 h (ng/g)
// return numeric value only (unit: ng/g, not printed)

Sample Cc1cc(C(F)(F)F)nc2ccc(Oc3c(Cl)cc(-n4nc(C#N)c(=O)[nH]c4=O)cc3Cl)cc12 — what was its concentration at 3 h?
1880

###

Protocol: tissue distribution studies in mice
Assay type: in vivo
Experimental Parameters: mouse, plasma, po, 10 mg/kg, Table 6, 24.0 h, mean, read-out: plasma Mean
Readout Type: concentration at 24 h (ng/mL)
Numeric answer only, unit ng/mL assumed.

What value of measured concentration at 24 h is listed for Cc1cc(C(F)(F)F)nc2ccc(Oc3c(Cl)cc(-n4nc(C#N)c(=O)[nH]c4=O)cc3Cl)cc12 [Compound 38] ?
304

###

Tested Target: THR-α (Homo sapiens, UniProt P10827)
Sequence (P10827 1-410 isoform P10827-2): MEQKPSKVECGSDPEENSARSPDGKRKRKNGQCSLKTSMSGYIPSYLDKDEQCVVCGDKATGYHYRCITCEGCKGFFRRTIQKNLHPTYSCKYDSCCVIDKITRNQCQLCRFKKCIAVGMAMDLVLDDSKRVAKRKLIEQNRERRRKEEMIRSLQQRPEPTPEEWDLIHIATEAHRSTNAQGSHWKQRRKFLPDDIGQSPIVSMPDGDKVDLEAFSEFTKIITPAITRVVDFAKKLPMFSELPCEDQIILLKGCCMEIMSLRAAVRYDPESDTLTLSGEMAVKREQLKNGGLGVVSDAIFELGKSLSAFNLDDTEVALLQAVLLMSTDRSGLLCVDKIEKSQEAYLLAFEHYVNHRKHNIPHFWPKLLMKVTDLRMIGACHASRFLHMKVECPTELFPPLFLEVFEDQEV
Protocol: in vitro agonist activity at the molecular level (AlphaScreen detection), THR-α
Experimental Parameters: in vitro molecular evaluation system
pEC50: −log10 of the molar value.
Readout Type: pEC50

Below: 2 compounds and their reported pEC50.
[[record]]
cpd_smiles = "Cc1cc(-c2ccco2)nc2ccc(Oc3c(Cl)cc(-n4nc(C#N)c(=O)[nH]c4=O)cc3Cl)cc12"
reported_measurement = 6.55

[[record]]
cpd_smiles = "Cc1cc(-c2ccoc2)nc2ccc(Oc3c(Cl)cc(-n4nc(C#N)c(=O)[nH]c4=O)cc3Cl)cc12"
reported_measurement = 5.91


I = Nc1nn(-c2cc(Cl)c(Oc3ccc4nccc(Cl)c4c3)c(Cl)c2)c(=O)[nH]c1=O
II = Cc1cc(-c2ccc(F)cc2)nc2ccc(Oc3c(Cl)cc(-n4nc(N)c(=O)[nH]c4=O)cc3Cl)cc12
III = Cc1cc(C2CCCCC2)nc2ccc(Oc3c(Cl)cc(-n4nc(N)c(=O)[nH]c4=O)cc3Cl)cc12
Please rank these compounds by pEC50 in descending order. Form entry: ranked labels (order as requested).
II, I, III
(II: 7.24, I: 6.61, III: 6.37)

###

Protocol: tissue distribution studies in mice
Assay type: in vivo
Experimental Parameters: mouse, liver, po, 10 mg/kg, Table 4, 3 h, mean, read-out: Liver Mean
Readout Type: concentration at 3 h (ng/g)
Unit ng/g implied. Number only.

Can you look up the measured concentration at 3 h of Cc1cc(C(F)(F)F)nc2ccc(Oc3c(Cl)cc(-n4nc(C#N)c(=O)[nH]c4=O)cc3Cl)cc12 [Compound 38] for me?
3670

###

Protocol: pharmacokinetic studies in mice
Assay type: in vivo
Parameters: concentration or dose not given beside the values
Experimental Parameters: mouse, in vivo, po, mean
Readout Type: AUC(0-t) (µg·h/mL)

A = Cc1cc(C(F)(F)F)nc2ccc(Oc3c(Cl)cc(-n4nc(C#N)c(=O)[nH]c4=O)cc3Cl)cc12 [Compound 38]
B = Cc1cc(-c2ccc(F)cc2)nc2ccc(Oc3c(Cl)cc(-n4nc(C#N)c(=O)[nH]c4=O)cc3Cl)cc12 [Compound 3]
Would you let me know which has the greater AUC(0-t) value, A or B ? Refer to your chosen entry by its label in the reply.
A
(A: 156 µg·h/mL, B: 79.4 µg·h/mL)

###

Protocol: pharmacokinetic studies in mice
Type: in vivo
Parameters: concentration or dose not given beside the values
Experimental Parameters: mouse, in vivo, iv, individual animal
Readout Type: AUC(0-t) (µg·h/mL)

[[record]]
compound = "Cc1cc(-c2ccc(F)cc2)nc2ccc(Oc3c(Cl)cc(-n4nc(C#N)c(=O)[nH]c4=O)cc3Cl)cc12 [Compound 3]"
readout_type = "AUC(0-t)"
reported_measurement = 118

[[record]]
compound = "Cc1cc(C(F)(F)F)nc2ccc(Oc3c(Cl)cc(-n4nc(C#N)c(=O)[nH]c4=O)cc3Cl)cc12 [Compound 38]"
readout_type = "AUC(0-t)"
reported_measurement = 119


###

Protocol: tissue distribution studies in mice
Type: in vivo
Experimental Parameters: mouse, liver, po, 10 mg/kg, Table 4, 3 h, individual animal, read-out: Liver
Readout Type: concentration at 3 h (ng/g)
Report the figure in ng/g without appending any unit label.

# lookup: concentration at 3 h of Cc1cc(C(F)(F)F)nc2ccc(Oc3c(Cl)cc(-n4nc(C#N)c(=O)[nH]c4=O)cc3Cl)cc12
4300

###

Tested Target: THR-β (Homo sapiens)
Construct: GST
Protocol: in vitro THR β agonist activity at the molecular level (AlphaScreen detection)
Experimental Parameters: in vitro molecular evaluation system
Readout Type: EC50 (nM)

[[record]]
compound = "Cc1cc(-c2ccoc2)nc2ccc(Oc3c(Cl)cc(-n4nc(C#N)c(=O)[nH]c4=O)cc3Cl)cc12 [Compound 17]"
reported_measurement = 296


1 = Cc1cc(-c2cccs2)nc2ccc(Oc3c(Cl)cc(-n4nc(C#N)c(=O)[nH]c4=O)cc3Cl)cc12 [Compound 19]
2 = Nc1nn(-c2cc(Cl)c(Oc3ccc4nccc(Cl)c4c3)c(Cl)c2)c(=O)[nH]c1=O [Compound 99]
3 = Cc1cc(-c2ccc(F)cc2)nc2ccc(Oc3c(Cl)cc(-n4nc(N)c(=O)[nH]c4=O)cc3Cl)cc12 [Compound 60]
4 = Cc1cc(C2CCCCC2)nc2ccc(Oc3c(Cl)cc(-n4nc(N)c(=O)[nH]c4=O)cc3Cl)cc12 [Compound 134]
5 = Cc1cc(-c2ccco2)nc2ccc(Oc3c(Cl)cc(-n4nc(C#N)c(=O)[nH]c4=O)cc3Cl)cc12 [Compound 15]
Task for the reader: rank each entry by its EC50, from the minimum upward. Answer format: the labels, in the requested order.
3, 2, 5, 4, 1
(3: 8.3 nM, 2: 31.5 nM, 5: 71.7 nM, 4: 120 nM, 1: 379 nM)
